A collection of compounds and their measured pIC50
experiment: Inhibition of RIP1 in human U937 cells assessed as reduction in TNFalpha/QVD-Oph-induced necrosis after 24 hrs by Cell Titer-Glo luminescent cell viability assay
pIC50 field: float, defined as -log10 of concentration (mol/L).

Consider the following illustrative entries.
CHEMICAL STRING: CN1C(=O)[C@@H](NC(=O)c2cc(Cc3ccccc3)n(C)n2)COc2ccccc21
pIC50: 8.00
--
CHEMICAL STRING: CN1C(=O)[C@@H](NC(=O)c2cc(Cc3ccccc3)on2)COc2ccc(-c3cc[nH]n3)cc21
pIC50: 8.20
--
CHEMICAL STRING: COC(=O)Nc1ccc2c(c1)N(C)C(=O)[C@@H](NC(=O)c1cc(Cc3ccccc3)on1)CO2
pIC50: 8.00
--
CHEMICAL STRING: CN1C(=O)[C@@H](NC(=O)c2cc(Cc3ccccc3)on2)COc2ccc(NS(C)(=O)=O)cc21
pIC50: 7.89
--
CHEMICAL STRING: CN1C(=O)[C@@H](NC(=O)c2nnc(Cc3ccccc3)o2)COc2ccccc21
pIC50: 8.10

State the recorded pIC50 for this entry: CN1C(=O)[C@@H](NC(=O)c2cn(Cc3ccccc3)cn2)COc2ccccc21
8.20

State the recorded pIC50 for this entry: CC(=O)Nc1ccc2c(c1)N(C)C(=O)[C@@H](NC(=O)c1cc(Cc3ccccc3)on1)CO2
8.10

These entries and their values trace back to BindingDB's records for doi:10.1021/acs.jmedchem.6b01751.
